molecular target: Recombinant human MASP2 enzyme (fragment corresponding to amino acids 297-686, C-terminal His Tag) (human, UniProt O00187 297-686); experiment: cell-based or functional assay
Sequence (O00187 other isoform, or with tags, fused parts or gaps limits assumed): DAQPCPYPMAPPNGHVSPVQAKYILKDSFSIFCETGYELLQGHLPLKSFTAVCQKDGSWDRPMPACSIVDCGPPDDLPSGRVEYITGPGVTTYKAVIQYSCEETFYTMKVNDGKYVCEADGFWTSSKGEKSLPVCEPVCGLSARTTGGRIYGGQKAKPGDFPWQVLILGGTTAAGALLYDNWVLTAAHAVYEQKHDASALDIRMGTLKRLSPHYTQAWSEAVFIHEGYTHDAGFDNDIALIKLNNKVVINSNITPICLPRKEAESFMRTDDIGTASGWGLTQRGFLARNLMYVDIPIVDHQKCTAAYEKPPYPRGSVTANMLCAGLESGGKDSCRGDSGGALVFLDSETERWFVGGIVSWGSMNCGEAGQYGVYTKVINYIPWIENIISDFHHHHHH
Bridge positions count the residues as written; N and C are the ends. Square brackets hold non-standard residues; d marks the D form. Ends that are not written are not given here. tBuAla = CC(C)(C)C[C@H](N)C(=O)O; Chg = N[C@H](C(=O)O)C1CCCCC1; Pen = CC(C)(S)[C@H](N)C(=O)O
MEASURED_PROPERTY: human MASP2 IC50 (µM)
State just the number; it will be interpreted in µM.

Tell us which human MASP2 IC50 value is on record for AICSRSLPP[Chg]CIPD-NH2 (disulfide 3-11; N-terminus assumed; SMILES CC[C@H](C)[C@H](NC(=O)[C@H](C)N)C(=O)N[C@H]1CSSC[C@@H](C(=O)N[C@H](C(=O)N2CCC[C@H]2C(=O)N[C@@H](CC(=O)O)C(N)=O)[C@@H](C)CC)NC(=O)[C@H](C2CCCCC2)NC(=O)[C@@H]2CCCN2C(=O)[C@@H]2CCCN2C(=O)[C@H](CC(C)C)NC(=O)[C@H](CO)NC(=O)[C@H](CCCNC(=N)N)NC(=O)[C@H](CO)NC1=O) [AIC+SRSLPP-(Chg)-C+IPD-NH2]
0.0735

Tell us which human MASP2 IC50 value is on record for FICSRS[tBuAla]PPI[Pen]IPD-NH2 (disulfide 3-11; N-terminus assumed; SMILES CC[C@H](C)[C@H](NC(=O)[C@@H](N)Cc1ccccc1)C(=O)N[C@H]1CSSC(C)(C)[C@@H](C(=O)N[C@H](C(=O)N2CCC[C@H]2C(=O)N[C@@H](CC(=O)O)C(N)=O)[C@@H](C)CC)NC(=O)[C@H]([C@@H](C)CC)NC(=O)[C@@H]2CCCN2C(=O)[C@@H]2CCCN2C(=O)[C@H](CC(C)(C)C)NC(=O)[C@H](CO)NC(=O)[C@H](CCCNC(=N)N)NC(=O)[C@H](CO)NC1=O) [FIC+SRS-((tBu)A)-PPI-(Pen)+IPD-NH2]
0.073
